Attribution: patent US7799821B2

tested_on: hEP2/Gqs5 (Homo sapiens)
Construct: expressed in transfected cells; host or cells: HEK-293(EBNA)
Sequence (P43116 whole entry): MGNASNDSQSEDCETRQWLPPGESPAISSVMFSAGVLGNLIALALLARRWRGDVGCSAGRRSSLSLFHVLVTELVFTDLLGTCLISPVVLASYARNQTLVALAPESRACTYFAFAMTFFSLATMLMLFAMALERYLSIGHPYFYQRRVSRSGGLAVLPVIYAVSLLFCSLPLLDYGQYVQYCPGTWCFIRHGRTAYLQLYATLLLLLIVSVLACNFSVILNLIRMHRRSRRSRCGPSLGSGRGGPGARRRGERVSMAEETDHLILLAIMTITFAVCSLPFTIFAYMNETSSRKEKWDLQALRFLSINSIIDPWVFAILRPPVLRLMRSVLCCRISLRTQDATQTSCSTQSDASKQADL
method_description: FLIPR calcium signal, hEP2
Assay type: cell-based
experimental_conditions: Table 3, third part; value outside parentheses; read-out: Ca2+ Signal-EC50 (nM) EP2
Description: […] Cells were excited with an Argon laser at 488 nm, and emission was measured through a 510-570 nm bandwidth emission filter (FLIPR™, Molecular Devices, Sunnyvale, Calif.). […] The peak increase in fluorescence intensity was recorded for each well. […] The peak fluorescence change in each drug-containing well was then expressed relative to the controls. […]
measurement_label: EC50 (nM)
Please respond with the number in nM and leave the unit unwritten.

Bench note: what EC50 did CCCCCC(C)c1ccc([C@@H]2[C@@H](C/C=C\CCCC(=O)O)[C@H](C#N)C[C@H]2C)cc1 (stereo partly shown) show?
34
